All values here come from paper PMC5564600.

target: panel of 442 kinases (Homo sapiens, UniProt Q86Z02); construct: purchased Ambit Biosciences (scanMAXX KINOMEscan); assay: biochemical; assay type: binding; conditions: kinase HIPK1; 1 µM; read-out: % of control at 1 µM
Sequence (Q86Z02 whole entry): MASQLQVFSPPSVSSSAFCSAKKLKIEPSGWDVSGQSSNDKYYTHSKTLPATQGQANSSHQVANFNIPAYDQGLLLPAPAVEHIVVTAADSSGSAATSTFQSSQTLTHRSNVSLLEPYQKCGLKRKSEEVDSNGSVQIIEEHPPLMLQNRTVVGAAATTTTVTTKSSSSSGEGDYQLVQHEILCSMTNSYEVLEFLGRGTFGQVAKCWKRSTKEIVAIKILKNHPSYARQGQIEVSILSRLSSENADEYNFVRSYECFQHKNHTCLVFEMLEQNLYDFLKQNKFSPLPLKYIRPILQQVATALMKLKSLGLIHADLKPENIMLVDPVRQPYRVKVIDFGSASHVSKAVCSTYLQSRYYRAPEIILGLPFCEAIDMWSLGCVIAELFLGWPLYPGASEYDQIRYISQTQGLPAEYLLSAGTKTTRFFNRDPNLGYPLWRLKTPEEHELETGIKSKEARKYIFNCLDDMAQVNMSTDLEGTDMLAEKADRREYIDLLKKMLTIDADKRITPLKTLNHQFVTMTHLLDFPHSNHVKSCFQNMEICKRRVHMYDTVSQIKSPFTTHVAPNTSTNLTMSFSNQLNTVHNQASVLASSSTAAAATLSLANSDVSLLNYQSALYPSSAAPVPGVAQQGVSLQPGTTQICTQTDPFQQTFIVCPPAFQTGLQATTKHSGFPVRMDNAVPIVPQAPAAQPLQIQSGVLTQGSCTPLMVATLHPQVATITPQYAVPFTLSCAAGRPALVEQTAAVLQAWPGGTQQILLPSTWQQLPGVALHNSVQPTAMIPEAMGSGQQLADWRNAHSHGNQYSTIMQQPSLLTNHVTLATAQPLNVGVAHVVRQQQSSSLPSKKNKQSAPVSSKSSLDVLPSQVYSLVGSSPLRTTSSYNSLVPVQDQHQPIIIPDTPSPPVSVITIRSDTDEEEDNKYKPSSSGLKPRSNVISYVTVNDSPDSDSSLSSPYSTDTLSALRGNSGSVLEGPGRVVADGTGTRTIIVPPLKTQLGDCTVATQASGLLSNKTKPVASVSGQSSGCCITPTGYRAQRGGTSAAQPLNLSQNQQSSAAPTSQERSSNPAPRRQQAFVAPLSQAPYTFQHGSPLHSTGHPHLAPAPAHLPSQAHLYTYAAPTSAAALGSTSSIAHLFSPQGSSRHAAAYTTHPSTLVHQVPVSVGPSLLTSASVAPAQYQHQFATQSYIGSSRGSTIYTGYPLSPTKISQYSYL

>  <compound string>
FC(F)c1nc2ccccc2n1-c1nc(N2CCOCC2)nc(N2CCOCC2)n1

>  <value unit>
%

>  <remaining activity at 1 µM>
86

$$$$
>  <compound string>
Nc1cc(C(F)(F)F)c(-c2cc(N3CCOCC3)nc(N3CCOCC3)n2)cn1

>  <value unit>
%

>  <remaining activity at 1 µM>
100

$$$$
>  <compound string>
COc1ncc(-c2ccc3nccc(-c4ccnnc4)c3c2)cc1NS(=O)(=O)c1ccc(F)cc1F

>  <value unit>
%

>  <remaining activity at 1 µM>
99

$$$$
>  <compound string>
Cn1c(=O)n(-c2ccc(C(C)(C)C#N)cc2)c2c3cc(-c4cnc5ccccc5c4)ccc3ncc21

>  <value unit>
%

>  <remaining activity at 1 µM>
72

$$$$
